Assignment: determine reported MIC for the given compounds.
test system: Escherichia coli (ATCC25922) or Staphylococcus aureus (ATCC25923); test: Antibacterial MIC, microdilution method in Mueller-Hinton medium; format: cell-based; conditions: Escherichia coli, 18 h, MIC in E. coli or S. aureus; two-fold serial dilutions 64 to 0.5 μg/ml in duplicate; 18 hours of incubation at 35° C.; read-out: Potency (MIC)

*Q* Quick one: MIC for Cl.O=C(Oc1ccccc1)c1ccc(Nc2cc(N3CCCCC3)cc(N3CCCCC3)c2)cc1O ?
*A* < 64 µg/mL

*Q* Quick one: MIC for Cc1cc(=O)oc2cc(Nc3nc(N4C[C@H](N)C[C@H](N)C4)nc(N4C[C@@H](N)C[C@@H](O)C4)n3)ccc12 ?
*A* > 64 µg/mL

*Q* Quick one: MIC for Cl.O=C(Nc1ccc(O)cc1)c1ccc(Nc2nc(N3CCCCC3)nc(N3CCCCC3)n2)cc1O ?
*A* < 16 µg/mL

*Q* Quick one: MIC for Cl.Nc1nc(N2C[C@H](N)C[C@H](N)C2)nc(N2C[C@H](N)C[C@H](N)C2)n1 ?
*A* > 64 µg/mL

*Q* Quick one: MIC for Cl.NC1C[C@@H](N)CN(c2nc(Nc3ccc(O)cc3[N+](=O)[O-])nc(N3C[C@H](N)C[C@H](N)C3)n2)C1 (stereo in doubt) ?
*A* > 64 µg/mL

*Q* Quick one: MIC for COc1ccc(Nc2ccc(NC(=O)CC(=O)c3ccc(Nc4nc(N5CCCCC5)nc(N5CCCCC5)n4)cc3)cc2)cc1 ?
*A* < 16 µg/mL

*Q* Quick one: MIC for C#Cc1cccc(Nc2nc(N3CCCCC3)nc(N3CCCCC3)n2)c1.Cl ?
*A* > 64 µg/mL

*Q* Quick one: MIC for Cl.c1ccc(Nc2ccccc2Nc2nc(C3CCCCC3)nc(N3CCCCC3)n2)cc1 ?
*A* > 64 µg/mL
